These entries and their values trace back to patent US9694016B2.

Target: b-Raf (V600E) (Homo sapiens (Human), UniProt P15056, V600E)
Sequence (P15056 whole entry V600E): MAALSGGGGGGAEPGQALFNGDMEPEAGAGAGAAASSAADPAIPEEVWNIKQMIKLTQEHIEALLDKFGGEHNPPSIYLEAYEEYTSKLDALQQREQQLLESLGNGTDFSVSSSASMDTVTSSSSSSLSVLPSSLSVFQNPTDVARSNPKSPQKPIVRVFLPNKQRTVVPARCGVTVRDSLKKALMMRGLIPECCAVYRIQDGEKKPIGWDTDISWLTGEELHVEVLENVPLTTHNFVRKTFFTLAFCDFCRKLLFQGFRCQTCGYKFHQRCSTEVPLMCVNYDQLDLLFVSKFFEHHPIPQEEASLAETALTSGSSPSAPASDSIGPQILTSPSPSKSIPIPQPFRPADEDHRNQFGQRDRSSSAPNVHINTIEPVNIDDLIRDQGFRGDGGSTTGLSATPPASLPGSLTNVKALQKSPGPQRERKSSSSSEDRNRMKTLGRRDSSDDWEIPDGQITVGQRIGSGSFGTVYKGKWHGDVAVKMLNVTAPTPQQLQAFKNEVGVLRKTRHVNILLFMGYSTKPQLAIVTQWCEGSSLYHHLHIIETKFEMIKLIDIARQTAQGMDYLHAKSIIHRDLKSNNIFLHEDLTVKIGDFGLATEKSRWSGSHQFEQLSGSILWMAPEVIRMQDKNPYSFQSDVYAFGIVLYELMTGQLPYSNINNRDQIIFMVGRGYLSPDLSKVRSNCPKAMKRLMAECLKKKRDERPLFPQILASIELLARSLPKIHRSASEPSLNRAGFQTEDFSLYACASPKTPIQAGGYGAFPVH
Details: read-out: b-Raf IC-50; AlphaScreen, 60 min pre-incubation, 3 hours reaction
QUANTITY_MEASURED: IC50 (nM)
Field format: number, assumed nM, no unit text.

// below: answered compounds
[[record]]
compound = "Cc1ncc(NC(=O)c2cccc(C(F)(F)F)c2)cc1-c1ccc(S(C)(=O)=O)c(N2CCOCC2)c1 [Example 687]"
assay_system = "b-Raf (V600E) (Homo sapiens (Human), UniProt P15056, V600E)"
meas_value = 0.8

[[record]]
compound = "CCNc1nc(-c2cc(NC(=O)c3ccnc(C(F)F)c3)cnc2C)cc(N2CCOCC2)n1 [Example 721]"
assay_system = "b-Raf (V600E) (Homo sapiens (Human), UniProt P15056, V600E)"
meas_value = 3.3

[[record]]
compound = "COc1nnc(-c2cc(NC(=O)c3ccnc(C(C)(C)O)c3)ccc2C)cc1N1CCOCC1 [Example 556]"
assay_system = "b-Raf (V600E) (Homo sapiens (Human), UniProt P15056, V600E)"
meas_value = 3.9


Field: next compound
Given the entry CCOc1ncc(-c2cc(NC(=O)c3cc(CN(C)C)cc(C(F)(F)F)c3)cnc2C)nc1N1CCOCC1 [Example 545] , report its measured IC50.
16.5
